Assay: qHTS Multiplex Assay to Identify Dual Action Probes in a Cell Model of Huntington: Aggregate Formation (GFP); note: nearly all actives have a fitted effect of over 60% in size
Settings: PC12 HttQ103-GFP aggregates, Acumen cytometry, 40 h; series mostly up to 9.22 µM
Hit rate of the full screen: of about 220,000 compounds, about 2,400 (1.1%) were called active. Inconclusive results (about 7%) are left out. Calls come from the whole dose curve; as a rule, active = well fitted inhibition curve with a large enough effect; inconclusive = small, poorly fitted or top-dose-only effect, or effect the other way; inactive = no such curve, though single readings can be large or run the other way. This is one part of a sample in which actives are shown more often than they occur.
In this exercise, the only acceptable responses are y (active), n (inactive)

Task: Hi team, can someone confirm the assay call for COc1ccc(Cl)cc1C(=O)NNC(=O)c1nc2nc(C)cc(C)n2n1 ?
Output: n

Task: Field entry: CCOC(=O)c1cc(NC(=O)c2cccnc2)cc(C(=O)OCC)c1
Output: n

Task: Field entry: Cc1c(C)c(C)c2[nH]c(=S)[nH]c2c1C
Output: n

Task: Field entry: CC(/C=C/c1ccco1)=N/NC(=O)C1COc2ccccc2O1 (configuration not stated)
Output: n

Task: Field entry: COc1ccccc1Oc1ccc(S(=O)(=O)Nc2cccnc2)cc1
Output: y

Task: Field entry: Brc1ccc(-c2nn[nH]n2)cc1
Output: n

Task: Field entry: O=C(Nc1cccc(Cl)c1)Nc1nnc(-c2ccccc2)o1
Output: n

Task: Field entry: Cc1onc(-c2ccccc2)c1C(=O)N1CCOCC1
Output: n

Task: Field entry: CC(NC(=O)C(C)(C)C)C(c1cccs1)N1CCN(Cc2ccccc2)CC1 (configuration not stated)
Output: n

Task: Field entry: COc1ccc(OCC(=O)Nc2cc(C)c(Cl)cc2OC)c([N+](=O)[O-])c1
Output: n

Task: Field entry: Nn1c(SCc2ccccc2)nnc1C1CCCCC1
Output: n

Task: Field entry: O=S(=O)(Nc1ccccn1)c1ccc(Oc2ccccc2)cc1
Output: n

Task: Field entry: CC(C)(C)OC(=O)NCCCCCC(=O)N/N=C/c1coc2ccccc2c1=O
Output: n

Task: Field entry: CC(=O)COc1ccc2c(-c3ccccc3)cc(=O)oc2c1
Output: n

Task: Field entry: O=C1CCCC(O)=C1N=Nc1ccc(S(=O)(=O)N2CCOCC2)cc1
Output: n

Task: Field entry: O=C(Nc1nncs1)c1ccccc1NS(=O)(=O)c1cccs1
Output: n

Task: Field entry: COCc1cc(=O)[nH]c(SC)n1
Output: n

Task: Field entry: c1ccc2c(c1)OCC(CNc1ncnc3nc[nH]c13)O2 (configuration not stated)
Output: n

Task: Field entry: Cc1ccc(Cl)c(OCC(=O)NN2CCN(C)CC2)c1
Output: n

Task: Field entry: Cc1c(C(=O)OC(C)C)sc(NC(=O)c2cccnc2)c1C#N
Output: y

Task: Field entry: COc1ccc(S(=O)(=O)Nc2cccnc2)c(Cl)c1Cl
Output: n

Task: Field entry: CCN(CC)S(=O)(=O)c1ccc(Cl)c(NC(=O)c2ccncc2)c1
Output: n

Task: Field entry: O=C(NC(Nc1nc2ccc([N+](=O)[O-])cc2s1)(C(F)(F)F)C(F)(F)F)c1ccccc1
Output: y

Task: Field entry: Cc1ccc(-c2ncc(Cl)cc2-c2ccc(S(C)(=O)=O)cc2)cn1
Output: n

Task: Field entry: CC(=O)NC(=S)Nc1ccc(NC(=O)c2cccnc2)cc1
Output: n

Task: Field entry: C#CCNc1ccc(C(=O)OCC)cc1
Output: n

Task: Field entry: O=C(CNC(=O)OCc1ccccc1)Oc1cc2oc(=O)cc(-c3ccccc3)c2cc1Cl
Output: y

Task: Field entry: COc1cc(NC(=O)c2ccccc2NS(=O)(=O)c2ccc(Cl)s2)cc(OC)c1
Output: y

Task: Field entry: COC(=O)c1ccccc1NC(=O)c1ccccc1NS(C)(=O)=O
Output: n

Task: Field entry: O=C(CNC(=O)c1ccc(-c2ccccc2)cc1)OCc1ccc(Cl)cc1
Output: n

Task: Field entry: Cc1nc(CNS(=O)(=O)c2cccnc2)cs1
Output: n

Task: Field entry: Cc1ccc(NC(=O)c2ccc(CSc3ncnc4nc[nH]c34)cc2)c(C)c1
Output: n

Task: Field entry: Cc1oc2c(c1C(=O)N1CCOCC1)C(=O)c1ccccc1C2=O
Output: y

Task: Field entry: NC(=O)Cc1ccc2c(c1)[nH]c1ccccc12
Output: n

Task: Field entry: O=C1N(c2ccccc2)C(=Nc2ccccc2)SC12CC2
Output: n

Task: Field entry: CCc1ccc(N(CC)c2ncnc3nc[nH]c23)cc1
Output: y

Task: Field entry: Cc1nnc(-c2ccc(Oc3ccc(C)c(C)c3)c([N+](=O)[O-])c2)o1
Output: y

Task: Field entry: COc1cc(NC(=O)c2cccnc2SC)cc(OC)c1
Output: n

Task: Field entry: O=C(O)CCC(=O)Nc1nc2ccc([N+](=O)[O-])cc2s1
Output: n

Task: Field entry: O=C(c1ccccc1-c1ccccc1)N1CCOCC1
Output: n

Task: Field entry: O=C(Nc1cccc(Cl)c1)Nc1ccccc1NS(=O)(=O)c1cccs1
Output: y

Task: Field entry: O=C(CNCc1cccs1)Nc1cc(S(=O)(=O)N2CCCC2)ccc1Cl
Output: n

Task: Field entry: CC(NC(=S)Nc1ccccc1)C(c1cccs1)N1CCOCC1 (configuration not stated)
Output: n

Task: Field entry: C=C(C)CNC(=S)Nc1ccc(S(=O)(=O)Nc2cnc3ccccc3n2)cc1
Output: n

Task: Field entry: CCOc1ccc(NC(=O)c2ccccc2NS(C)(=O)=O)cc1
Output: n

Task: Field entry: O=[N+]([O-])C(=c1ccc2c(c1)N1C3=C(CCCC3)CC3CCCCC31N=2)[N+](=O)[O-] (configuration not stated)
Output: n

Task: Field entry: O=C(Nc1nc2ccc([N+](=O)[O-])cc2s1)c1ccncc1
Output: n

Source: PubChem BioAssay AID1688
